FYI, the data here is from paper PMC9468336.

target: hemolytic activity of SaroL-1 on rabbit erythrocytes (Salpingoeca rosetta, UniProt F2UID9); test: Inhibition of hemolytic activity (IHA) of SaroL-1 by carbohydrates; assay type: cell-based; conditions: sugar 6.25 mM, SaroL-1 217 nM; read-out: Mean % inhibition of hemolysis
measure_name: inhibition (%)
Respond with the bare value in %.

Answered cases to consult:
{"molecule": "OC[C@H]1O[C@H](OCC2O[C@@H](O)[C@H](O)[C@@H](O)[C@@H]2O)[C@H](O)[C@@H](O)[C@H]1O (stereo partly drawn) [melibiose]", "measurement_units": "%", "inhibition": 91.8}
{"molecule": "O=[N+]([O-])c1ccc(O[C@H]2O[C@H](CO)[C@H](O)[C@H](O)[C@H]2O)cc1 [PNPG, p-nitrophenyl-α-D-galactopyranoside]", "measurement_units": "%", "inhibition": 90.5}

[Q] Provide inhibition value for the following molecule: CC(=O)N[C@H]1C(O)O[C@H](CO)[C@H](O)[C@@H]1O (stereo partly drawn) [GalNAc, N-acetylgalactosamine]
[A] 64

* * *

Let's look at some molecules and their measured inhibition.
molecular target: hemolytic activity of SaroL-1 on rabbit erythrocytes (Salpingoeca rosetta, UniProt F2UID9); assay: Inhibition of hemolytic activity (IHA) of SaroL-1 by carbohydrates; type: cell-based; conditions: sugar 12.5 mM, SaroL-1 217 nM; read-out: Mean % inhibition of hemolysis
Write the answer as a number in %, unit excluded.

Here are 2 molecules together with their reported answers.
{"molecule": "OC[C@H]1O[C@H](OCC2O[C@@H](O)[C@H](O)[C@@H](O)[C@@H]2O)[C@H](O)[C@@H](O)[C@H]1O (stereo partly drawn)", "measurement_units": "%", "inhibition": 100}
{"molecule": "O=[N+]([O-])c1ccc(O[C@H]2O[C@H](CO)[C@H](O)[C@H](O)[C@H]2O)cc1 [PNPG, p-nitrophenyl-α-D-galactopyranoside]", "measurement_units": "%", "inhibition": 100}

Would you kindly look at the next entry?
[Q] Identify measured inhibition associated with CC(=O)N[C@H]1C(O)O[C@H](CO)[C@H](O)[C@@H]1O (stereo partly drawn)
[A] 83.1

* * *

target: SaroL-1 (Salpingoeca rosetta); construct: monomeric in solution; assay: Isothermal titration calorimetry (MicroCal iTC200) at 25 °C in 20 mM Tris/HCl pH 7.5, 100 mM NaCl, ligand titrated into SaroL-1, one-site model with stoichiometry N fixed to 3.
measure_name: Kd (µM)
// note: answer is a bare numeric in µM

{"compound": "CO[C@H]1O[C@H](CO)[C@H](O)[C@H](O)[C@H]1O [GalαOMe, α-methyl galactoside]", "system": "SaroL-1 (Salpingoeca rosetta)", "measurement_units": "µM", "measured": 2170}
{"compound": "O=[N+]([O-])c1ccc(O[C@H]2O[C@H](CO)[C@H](O)[C@H](O)[C@H]2O)cc1 [PNPG, p-nitrophenyl-α-D-galactopyranoside]", "system": "SaroL-1 (Salpingoeca rosetta)", "measurement_units": "µM", "measured": 1010}
{"compound": "OC[C@H]1O[C@H](O[C@H]2[C@@H](O)[C@@H](CO)OC(O)[C@@H]2O)[C@H](O)[C@@H](O)[C@H]1O (stereo partly shown)", "system": "SaroL-1 (Salpingoeca rosetta)", "measurement_units": "µM", "measured": 1380}

[Q] Identify Kd associated with the compound CC(=O)N[C@H]1C(O)O[C@H](CO)[C@H](O)[C@@H]1O (stereo partly shown)
[A] 2760

* * *

Biological target: hemolytic activity of SaroL-1 on rabbit erythrocytes (Salpingoeca rosetta, UniProt F2UID9)
Sequence (F2UID9 1-329): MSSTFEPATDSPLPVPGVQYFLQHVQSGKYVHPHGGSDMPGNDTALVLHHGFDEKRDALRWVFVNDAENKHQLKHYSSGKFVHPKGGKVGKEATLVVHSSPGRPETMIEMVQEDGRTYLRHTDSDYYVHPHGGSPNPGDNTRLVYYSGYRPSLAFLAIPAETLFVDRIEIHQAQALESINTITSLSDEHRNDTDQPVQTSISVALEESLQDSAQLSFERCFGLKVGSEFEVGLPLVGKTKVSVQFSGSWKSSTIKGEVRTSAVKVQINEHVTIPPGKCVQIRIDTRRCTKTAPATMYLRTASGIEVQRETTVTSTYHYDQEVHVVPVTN
Assay: Inhibition of hemolytic activity (IHA) of SaroL-1 by carbohydrates
Type: cell-based
Details: sugar 50 mM, SaroL-1 217 nM; read-out: Mean % inhibition of hemolysis
measure_name: inhibition (%)
Express it in %; write the number only.

{"compound": "O=[N+]([O-])c1ccc(O[C@H]2O[C@H](CO)[C@H](O)[C@H](O)[C@H]2O)cc1 [PNPG, p-nitrophenyl-α-D-galactopyranoside]", "inhibition (%)": 100}
{"compound": "OC[C@H]1O[C@H](OCC2O[C@@H](O)[C@H](O)[C@@H](O)[C@@H]2O)[C@H](O)[C@@H](O)[C@H]1O (stereo partly drawn) [melibiose]", "inhibition (%)": 100}

The record that follows has no inhibition shown yet.
[Q] Given CC(=O)N[C@H]1C(O)O[C@H](CO)[C@H](O)[C@@H]1O (stereo partly drawn) [GalNAc, N-acetylgalactosamine] , respond with its inhibition.
[A] 100

* * *

Target: hemolytic activity of SaroL-1 on rabbit erythrocytes (Salpingoeca rosetta, UniProt F2UID9)
Sequence (F2UID9 1-329): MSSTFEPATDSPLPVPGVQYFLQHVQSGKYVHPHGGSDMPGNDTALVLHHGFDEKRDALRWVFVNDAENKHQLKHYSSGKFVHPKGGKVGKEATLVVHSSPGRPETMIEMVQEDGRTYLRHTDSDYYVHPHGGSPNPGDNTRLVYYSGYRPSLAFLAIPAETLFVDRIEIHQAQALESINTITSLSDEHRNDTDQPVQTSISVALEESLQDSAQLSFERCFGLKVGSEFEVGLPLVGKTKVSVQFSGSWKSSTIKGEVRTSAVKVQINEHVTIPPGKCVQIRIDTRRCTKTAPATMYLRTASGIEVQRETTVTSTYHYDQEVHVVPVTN
Assay: Inhibition of hemolytic activity (IHA) of SaroL-1 by carbohydrates
Type: cell-based
Conditions: sugar 0.003 mM, SaroL-1 217 nM; read-out: Mean % inhibition of hemolysis
This section presents compounds with their documented inhibition values.
Enter your answer as a number in %; do not include the unit.

Recorded inhibition, per entry:
{"compound": "OC[C@H]1O[C@H](OCC2O[C@@H](O)[C@H](O)[C@@H](O)[C@@H]2O)[C@H](O)[C@@H](O)[C@H]1O (stereo partly drawn)", "measure_name": "inhibition", "measured": 0.665}
{"compound": "CC(=O)N[C@H]1C(O)O[C@H](CO)[C@H](O)[C@@H]1O (stereo partly drawn)", "measure_name": "inhibition", "measured": 3.76}

// next entry
[Q] For the compound O=[N+]([O-])c1ccc(O[C@H]2O[C@H](CO)[C@H](O)[C@H](O)[C@H]2O)cc1 [PNPG, p-nitrophenyl-α-D-galactopyranoside] , give its measured inhibition value.
[A] 8.15
